Test system: Bacillus anthracis, Sterne 34F2
assayRemarks: microbe, parasite or virus in culture
Format: cell-based
conditionDescription: STERNE34F2, read-out: MIC B.a.
# MIC listing for each entry below

Provide one value: measured MIC of `CN[C@@H]1[C@H](O)[C@H](NC)[C@H]2O[C@]3(O)[C@H](O[C@@H]2[C@H]1O)O[C@H](C)C[C@@]3(O)CNCCc1nccs1`
50 µg/mL

More entries:
Provide one value: measured MIC of `CN[C@@H]1[C@H](O)[C@H](NC)[C@H]2O[C@]3(O)[C@H](O[C@@H]2[C@H]1O)O[C@H](C)C[C@@]3(O)CNCCN1CCOCC1`
100 to 200 µg/mL

Provide one value: measured MIC of `CN[C@@H]1[C@H](O)[C@H](NC)[C@H]2O[C@]3(O)[C@H](O[C@@H]2[C@H]1O)O[C@H](C)C[C@@]3(O)CNCc1cnccn1`
200 µg/mL

Provide one value: measured MIC of CN[C@@H]1[C@H](O)[C@H](NC)C2O[C@]3(O)C(OC2[C@H]1O)O[C@H](C)C[C@@]3(O)CNCc1ccc(OC)c2c1CCCC2 (some centres unmarked)
> 200 µg/mL

Provide one value: measured MIC of CN[C@@H]1[C@H](O)[C@H](NC)C2O[C@]3(O)C(OC2[C@H]1O)O[C@H](C)C[C@@]3(O)CNCc1cccc(C(F)(F)F)c1 (some centres unmarked)
> 200 µg/mL
